Attribution: patent US10770169B2

Tested on: panel of 55 breast cancer cell lines
Assay: Cell growth inhibition assay (Cell Titer Glo, 72 h, 9 doses; GI50, TGI, LC50)
Type: cell-based, human
Conditions: MDAMB231 cell line; censored GI50 values; value is the negative log10 of mol/L
Please respond with reported GI50 for every item in the list.
Answer using only a numeral; do not append any unit.

// query GET /values?readout=GI50&system=panel of 55 breast cancer cell lines&item= `CC(/C=C/C(=O)NO)=C\[C@@H](C)C(=O)c1ccc(N(C)C)cc1`
// result 5.26

// query Please give the result for `N.N.O=C([O-])C1(C(=O)[O-])CCC1.[Pt+2]` too.
// result 4.09

// query Next up: Cc1cc(C(C)Nc2ccccc2)c2nc(N3CCOCC3)cc(=O)n2c1 (stereo not drawn)
// result 4.61

// query Try the compound CC(=O)Nc1cccc(-n2c(=O)n(C3CC3)c(=O)c3c(Nc4ccc(I)cc4F)n(C)c(=O)c(C)c32)c1.C[S+](C)[O-] [GSK1120212B]
// result 6.86

// query Next: `NC(=O)Nc1sc(-c2ccc(F)cc2)cc1C(N)=O`
// result 4.45

// query Also need `CC(C)Oc1ccc(C(=O)N[C@H](CNC(=O)CN(C)C)Cc2ccc(-c3cn4cccc([C@H](C)O)c4n3)cc2)cc1Cl` , thanks.
// result 7.34

// query Proceed to `C=CCNC1=C2C[C@@H](C)C[C@H](OC)[C@H](O)[C@@H](C)/C=C(\C)[C@H](OC(N)=O)[C@@H](OC)/C=C\C=C(/C)C(=O)NC(=CC1=O)C2=O`
// result 6.11

// query Please give the result for `O=c1[nH]c(=O)n([C@H]2C[C@H](O)[C@@H](CO)O2)cc1F` too.
// result 3.10

// query Follow-up entry: C[C@@H](Oc1cc(-n2cnc3ccc(CN4CCN(C)CC4)cc32)sc1C(N)=O)c1ccccc1C(F)(F)F [GSK461364A]
// result 7.68

// query Thanks! And CCNCCCCNCCCCNCCCCNCCCCNCC=CCNCCCCNCCCCNCCCCNCCCCNCC.Cl.Cl.Cl.Cl.Cl.Cl.Cl.Cl.Cl.Cl (stereo in doubt) ?
// result 4.66

// query Another compound: CNC(=O)c1c(F)cccc1Nc1nc(Nc2cc3c(cc2OC)CCN3C(=O)CN(C)C)nc2[nH]ccc12 [GSK1838705A]
// result 5.28

// query # repeat for `CCn1cc(-c2ccnc3[nH]c(-c4cccc(CN(C)C)c4)cc23)c(-c2ccc(NC(=O)N(C)C)cc2)n1`
// result 5.78
